- TESTED ON: T1, hen egg lysozyme (Gallus gallus (hen egg white), UniProt P00698)
- T1 construct: hen egg lysozyme (HEL), the antigen of D3-L11; also in PDB 6JB8; The supplier is named for the ELISA only; also called HEL; antigen lysozyme; source: bought: Sigma-Aldrich, Cat No. L6876
- T1 sequence (P00698 19-147): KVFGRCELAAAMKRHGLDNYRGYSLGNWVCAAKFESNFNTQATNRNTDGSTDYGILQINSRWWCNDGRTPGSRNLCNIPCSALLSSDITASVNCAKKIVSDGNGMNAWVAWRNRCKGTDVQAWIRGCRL
- EXPERIMENT SUMMARY: SPR; Biacore T200; lysozyme immobilised on Sensor Chip CM5 by amine coupling (200 RU); VHH injected 300 s, dissociation 600 s in PBST (PBS, 0.005% Tween 20); 1:1 binding model; duplicate
- DETAILS: both partners purified
MEASURED ATTRIBUTE: pKd
Numbers only, as −log10 of the molar value.

BINDER | pKd
D3-L11 G97F (VHH, as the VHH chain of Sm1 (D3-L11 wild type, PDB 6JB8) with G97F; SAG tripeptide linker before the C-terminal 6xHis tag; source: ExpiCHO, transient transfection, purified from supernatant (His Mag Sepharose excel); not shown: His6, C-terminal, kept) VHH: DVQLVESGGGSVQAGGSLRLSCAASGSTDSIEYMTWFRQAPGKAREGVAALYTHTGNTYYTDSVKGRFTISQDKAKNMAYLRMDSVKSEDTAIYTCFATRKYVPVRFALDQSSYDYWGQGTQVTVSS | 11.22
D3-L11 A79N (VHH, as the VHH chain of Sm1 (D3-L11 wild type, PDB 6JB8) with A79N; SAG tripeptide linker before the C-terminal 6xHis tag; source: ExpiCHO, transient transfection, purified from supernatant (His Mag Sepharose excel); not shown: His6, C-terminal, kept) VHH: DVQLVESGGGSVQAGGSLRLSCAASGSTDSIEYMTWFRQAPGKAREGVAALYTHTGNTYYTDSVKGRFTISQDKAKNMNYLRMDSVKSEDTAIYTCGATRKYVPVRFALDQSSYDYWGQGTQVTVSS | 11.09

Each of the following entries comes with a recorded value; kindly state pKd for each.
1. D3-L11 A79Q (VHH, as the VHH chain of Sm1 (D3-L11 wild type, PDB 6JB8) with A79Q; SAG tripeptide linker before the C-terminal 6xHis tag; source: ExpiCHO, transient transfection, purified from supernatant (His Mag Sepharose excel); not shown: His6, C-terminal, kept) VHH: DVQLVESGGGSVQAGGSLRLSCAASGSTDSIEYMTWFRQAPGKAREGVAALYTHTGNTYYTDSVKGRFTISQDKAKNMQYLRMDSVKSEDTAIYTCGATRKYVPVRFALDQSSYDYWGQGTQVTVSS
2. D3-L11 A79L (VHH, as the VHH chain of Sm1 (D3-L11 wild type, PDB 6JB8) with A79L; SAG tripeptide linker before the C-terminal 6xHis tag; source: ExpiCHO, transient transfection, purified from supernatant (His Mag Sepharose excel); not shown: His6, C-terminal, kept) VHH: DVQLVESGGGSVQAGGSLRLSCAASGSTDSIEYMTWFRQAPGKAREGVAALYTHTGNTYYTDSVKGRFTISQDKAKNMLYLRMDSVKSEDTAIYTCGATRKYVPVRFALDQSSYDYWGQGTQVTVSS

Result block:
[11.14, 11.18]
